Reference source for all entries: the Human Domainome abundance scans (Beltran et al. 2025)

B1: Myocardin, residues 363 to 406; numbered along this chain, Q8IZQ8 (parent)
chain: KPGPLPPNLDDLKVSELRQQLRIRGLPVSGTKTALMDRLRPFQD

Variants of: B1
test protocol: abundance fitness (aPCA) (normalised: wild type 0, dead -1); higher = more abundant; growth selection in yeast, the domain comes from the species named
condition set: Homo sapiens
readout label: abundance fitness

KPGPLPPNLDDLKVSELRQQLTIRGLPVSGTKTALMDRLRPFQD [R22T] : -0.258
KPGPLPPNLDDLKVSELRQQLRIRGLPVSGTKTALMDRLRPFPD [Q43P] : -0.625
KPGPLPPNLDDLKVSELRQQLRIRGLPVSGTKTALQDRLRPFQD [M36Q] : -0.398
KPGPLPPNLDQLKVSELRQQLRIRGLPVSGTKTALMDRLRPFQD [D11Q] : -0.007
KPGPLPPNLDDLKVSELRQQLRIRMLPVSGTKTALMDRLRPFQD [G25M] : -0.358
KPGPLPPNLDDLKVSELRQQLRIRGLPVSGTKTALCDRLRPFQD [M36C] : -0.454
KPGPHPPNLDDLKVSELRQQLRIRGLPVSGTKTALMDRLRPFQD [L5H] : -0.311
KPGPLPPNLDDLKVSELRQQLRIRGRPVSGTKTALMDRLRPFQD [L26R] : -0.858
KPGPLPPNLTDLKVSELRQQLRIRGLPVSGTKTALMDRLRPFQD [D10T] : -0.178
KPGPLPPNLDDLKVSELRQQLRIRGEPVSGTKTALMDRLRPFQD [L26E] : -0.293
KPGPLTPNLDDLKVSELRQQLRIRGLPVSGTKTALMDRLRPFQD [P6T] : -0.197
KPGPLPPNLDDLKVSEKRQQLRIRGLPVSGTKTALMDRLRPFQD [L17K] : -0.345
KPGPLPPNLDDLKVSELRQQLRIRGLPVSGTKWALMDRLRPFQD [T33W] : -0.467
KPGPLPPNLDDLKVSELRAQLRIRGLPVSGTKTALMDRLRPFQD [Q19A] : -0.194
KPGPLPPNLDDLKVSELRQQLRIRGLPVFGTKTALMDRLRPFQD [S29F] : -0.245
KPGPLPPNLNDLKVSELRQQLRIRGLPVSGTKTALMDRLRPFQD [D10N] : -0.078
KPGPLPLNLDDLKVSELRQQLRIRGLPVSGTKTALMDRLRPFQD [P7L] : -0.001
KPGPLPPNLDGLKVSELRQQLRIRGLPVSGTKTALMDRLRPFQD [D11G] : -0.074
KPGPLPPNLDDLKVSELRQQLRIRGLPVSGTKTALMDHLRPFQD [R38H] : -1.2
KPGPLPPGLDDLKVSELRQQLRIRGLPVSGTKTALMDRLRPFQD [N8G] : -0.623
KRGPLPPNLDDLKVSELRQQLRIRGLPVSGTKTALMDRLRPFQD [P2R] : 0.085
KPGPLPPNVDDLKVSELRQQLRIRGLPVSGTKTALMDRLRPFQD [L9V] : -0.024
KPGPLPPNLDDLKVSELRQQLRIRGLPVSGTKTALMERLRPFQD [D37E] : 0.246
KPGPLPPNLDDLKVSELRQQLRIRGLPVSGTKTALMDRLRPFMD [Q43M] : -0.031
KPGPLPPNLWDLKVSELRQQLRIRGLPVSGTKTALMDRLRPFQD [D10W] : 0.104
KPGPLPPNLDDLKVSELRQQLRIRGLPVSGTETALMDRLRPFQD [K32E] : -0.286
KPGPLPPNLDDLKVSELRHQLRIRGLPVSGTKTALMDRLRPFQD [Q19H] : -0.412
KPGPLPPNIDDLKVSELRQQLRIRGLPVSGTKTALMDRLRPFQD [L9I] : -0.289
KPGPLPPNLDDLKVSELRQQLRIRGLPVSGTYTALMDRLRPFQD [K32Y] : -0.593
KPGPLPTNLDDLKVSELRQQLRIRGLPVSGTKTALMDRLRPFQD [P7T] : 0.018
KPGPTPPNLDDLKVSELRQQLRIRGLPVSGTKTALMDRLRPFQD [L5T] : -0.302
KPGPLPPDLDDLKVSELRQQLRIRGLPVSGTKTALMDRLRPFQD [N8D] : -0.246
KPGPLPPNLDDLKVSELRQQLRIRGLPVSGTKTALMDGLRPFQD [R38G] : -0.469
KPGPKPPNLDDLKVSELRQQLRIRGLPVSGTKTALMDRLRPFQD [L5K] : -0.514
KPGPLPPNLDDLKVSELRQQLRIRGLPVSGLKTALMDRLRPFQD [T31L] : -0.344
KPGPLPPNLDDLKVSELRQQNRIRGLPVSGTKTALMDRLRPFQD [L21N] : -0.244
KPGPLPPNLDDLKVSELRQQLHIRGLPVSGTKTALMDRLRPFQD [R22H] : -0.624
KPKPLPPNLDDLKVSELRQQLRIRGLPVSGTKTALMDRLRPFQD [G3K] : 0.245
KPGPLPPNLDDLKVSELRQQLRIRGLPVSGTKTALMMRLRPFQD [D37M] : -0.264
KPGPLPPNLDDLKVSELRQQMRIRGLPVSGTKTALMDRLRPFQD [L21M] : -0.321
KPGPLVPNLDDLKVSELRQQLRIRGLPVSGTKTALMDRLRPFQD [P6V] : -0.133
KPGPLPPNLDDLKVSELRQQLRIRGLPVSGTKTALMDRLRPFQL [D44L] : -0.494
KPGPLPPNLADLKVSELRQQLRIRGLPVSGTKTALMDRLRPFQD [D10A] : 0.178
KPGPLPPNLDDLKVSELRQQLRIRGLPVSGTKTALMDRLRPFID [Q43I] : -0.109
KPGPLPPNLDDLKVSELRQDLRIRGLPVSGTKTALMDRLRPFQD [Q20D] : -0.608
KPGPLPPNLDDLKVSELRQQLRIRGLPVSGTKTALMDRLRTFQD [P41T] : -0.351
KPGPLPPNLDDLKVSELRQQLRIRGLPVSGTKTALMDWLRPFQD [R38W] : -1.02
KPSPLPPNLDDLKVSELRQQLRIRGLPVSGTKTALMDRLRPFQD [G3S] : -0.077
KPGPLPPNLDDLKVSELRQQLRIRGLPVSGEKTALMDRLRPFQD [T31E] : -0.01
KPGPLPPNLDDLKVSELRQQLRRRGLPVSGTKTALMDRLRPFQD [I23R] : -0.211
KPGPLPPNLDDLKVSELRQQLRIRGLMVSGTKTALMDRLRPFQD [P27M] : -0.324
KPGPLPPILDDLKVSELRQQLRIRGLPVSGTKTALMDRLRPFQD [N8I] : -0.408
KPGPLPPVLDDLKVSELRQQLRIRGLPVSGTKTALMDRLRPFQD [N8V] : -0.048
KPGKLPPNLDDLKVSELRQQLRIRGLPVSGTKTALMDRLRPFQD [P4K] : 0.371
KPMPLPPNLDDLKVSELRQQLRIRGLPVSGTKTALMDRLRPFQD [G3M] : 0.146
KPGPLPPNLDDLKVSELRQQLRIRGLPVSGTKTMLMDRLRPFQD [A34M] : -0.262
KPGPLPPNLDDLKVSELRQQLRIRGLPVSGAKTALMDRLRPFQD [T31A] : 0.078
KPGPLPPNLDDLKVSEGRQQLRIRGLPVSGTKTALMDRLRPFQD [L17G] : -0.649
KPGPLGPNLDDLKVSELRQQLRIRGLPVSGTKTALMDRLRPFQD [P6G] : -0.153
KPGPLPPNLDDLKVSELRQQLRIRGLPVSGTKTALMDRDRPFQD [L39D] : -0.283
KPGPLPPNLDWLKVSELRQQLRIRGLPVSGTKTALMDRLRPFQD [D11W] : -0.441
KPGPLPPNLDDLKVSELRDQLRIRGLPVSGTKTALMDRLRPFQD [Q19D] : -0.05
